test: Pharmacokinetic study in rats after oral administration of cinobufacini capsule (UPLC-MS/MS of plasma); type: in vivo, rat; details: male, Sprague-Dawley, in vivo; rat plasma, oral cinobufacini capsule 3.6 g/kg (high), mean ± SD, n = 6; read-out: MRT0-∞
parameter.measured: MRT inf (h)
Respond numerically; units are h and should not be typed.

compound | parameter.measured | measured
C[C@]12CC[C@H](O)C[C@@]1(O)CC[C@@H]1[C@@H]2CC[C@]2(C)[C@@H](c3ccc(=O)oc3)CC[C@]12O [TCG, telocinobufagin] | MRT inf | 0.83
C[C@]12CC[C@H]3[C@@H](CC[C@]4(O)C[C@@H](O)CC[C@]34C=O)[C@@]1(O)CC[C@@H]2c1ccc(=O)oc1 [HBG, hellebrigenin] | MRT inf | 2.14

Request: Given the compound C[C@]12CC[C@H](O)C[C@H]1CC[C@@H]1[C@@H]2CC[C@]2(C)[C@@H](c3ccc(=O)oc3)[C@@H](O)[C@H]3O[C@]132 [DCG, desacetylcinobufagin] , what is its reported MRT inf?
Response: 2.65

Values compiled from paper PMC9343874.
